system: EKVX NSCLC; experiment: NCI-60 one-dose screen, 48 h; details: 10 µM unless noted
The panel holds about 83,000 compounds, 20% with a hit somewhere; the sample as a whole holds those more often. Activity calls are given as the source filed them. Rule for the calls: active = growth percent below 10; inactive = the rest.
# output must be one of active, inactive

Below are worked cases with known answers.
Cc1ccc2c(n1)C(=O)C(Cl)=C(Nc1ccc(C)c(C)c1)C2=O | inactive
CCNC(=O)Oc1ccc(/C(=C(/C)c2ccc(Cl)cc2)c2ccc(OCCN3CCCCCC3)cc2)cc1 | inactive
COc1cc2oc(-c3cccc(NC(=O)c4cccc([N+](=O)[O-])c4)c3)cc(=O)c2c(OC)c1OC | inactive
C#CCOc1ccccc1C(OC(=O)c1ccccc1)C(=O)NC(C)(C)C(C)(C)C (configuration not stated) | inactive
O=C(CCCCCCNC(=O)C(O)(O)C(F)(F)F)Nc1ccc(Cl)cc1 | inactive

Test call for this compound, please: `O=C(CCCCCCNC(=O)c1csc(Br)n1)NO`
inactive

Test call for this compound, please: `CC(C)NC(=O)c1cc(-c2ccc(NC(=O)Nc3ccc(F)c(C(F)(F)F)c3)cc2)nc2cccnc12`
inactive

Test call for this compound, please: `CC(C)(C)OC(=O)Nc1ccc(-c2cccc(Oc3ccc4nnc(Cl)n4n3)c2)cc1`
inactive

Test call for this compound, please: `COc1cc(NC(=O)Nc2cccc(-c3cc(=O)c4c(OC)c(OC)c(OC)cc4o3)c2)cc(OC)c1OC`
inactive

Test call for this compound, please: `O=C(/C=C/c1ccccc1)c1cccc(O)c1`
inactive

###

tested on: KM12 colon; test: NCI-60 one-dose screen, 48 h (100 = growth as untreated, 0 = no growth, -100 = all killed); details: 10 µM unless noted
About 83,000 compounds went through this panel and 20% of them were active in at least one assay; those are over-represented in the sample as a whole. Active and inactive are the calls of the source. How the source made its calls: active means growth percent below 10; inactive means the rest.
measured endpoint: growth

O=c1nc(Nc2ccc([N+](=O)[O-])cc2O)sc2ccccc12 | 23.9% (inactive)

Name the recorded growth of the compound listed here: `COc1ccc(-c2nc(C#N)c(N3CCC(S(=O)(=O)N4CCOCC4)CC3)o2)cc1`
97.1% (inactive)

Name the recorded growth of the compound listed here: `C=C(C)[C@@H]1CC[C@]2(COP(=O)(OCC)OCC)CC[C@]3(C)[C@H](CC[C@@H]4[C@@]5(C)CC[C@H](OP(=O)(OCC)OCC)C(C)(C)[C@@H]5CC[C@]43C)[C@@H]12`
54.2% (inactive)

Name the recorded growth of the compound listed here: CN1CC[C@@H]2[C@@]3(C)CC[C@H](O)C(C)(C)[C@@H]3CC[C@@]2(C)[C@]2(C)CC[C@@]3(CO)CCC(C)(C)C[C@@H]3C12 (some centres not stated)
96.2% (inactive)

Name the recorded growth of the compound listed here: Cc1[nH]c(C(=O)Nc2ccccc2OCc2cccc(C(=O)NC3CCCNC3)c2)c(Cl)c1Cl (configuration not stated)
-78.4% (active)

Name the recorded growth of the compound listed here: COc1ccc(C2CC(c3cccc(OCCCCOc4cccc(C5=NN(C(C)=O)C(c6ccc(OC)cc6)C5)c4)c3)=NN2C(C)=O)cc1 (configuration not stated)
70.5% (inactive)

###

Below, each of the compounds is paired with its reported growth value.
test system: NCI-H226 lung; assay: NCI-60 one-dose screen, 48 h (100 = growth as untreated, 0 = no growth, -100 = all killed); conditions: 10 µM unless noted
Compounds without any hit were thinned out: in the full panel of roughly 83,000, 20% have a hit.
Entry rule: numbers only, all in %.

CCOC(=O)C(=O)Nc1ccc2c(ccn2C(=O)c2cccc(F)c2)c1 | 97.2
NS(=O)(=O)c1cccc(Nc2nc(SCC(=O)c3ccc(Cl)cc3)nc3c2CCC3)c1 | 87.7
O=C(Nc1cccc(C(F)(F)F)c1)N1CCN(c2cc(-c3cn(-c4ccccc4)nc3-c3cccc(O)c3)ccn2)CC1 | 30.3

Name the recorded growth of the compound listed here: `COc1cc(OC)cc(-c2cc(-c3c[nH]c4ccccc34)nc(-c3c[nH]c4ccccc34)c2C#N)c1`
87.3

Name the recorded growth of the compound listed here: NS(=O)(=O)c1ccc(Nc2nc(Nc3ccccc3)nc(N3N=C(c4ccc(Cl)cc4)CC3c3ccc(Cl)cc3)n2)cc1 (stereo not drawn)
55.1
